- TEST SYSTEM: EGFR L858R (Homo sapiens (Human), UniProt P00533, L858R)
- Sequence (P00533 25-1210 L858R): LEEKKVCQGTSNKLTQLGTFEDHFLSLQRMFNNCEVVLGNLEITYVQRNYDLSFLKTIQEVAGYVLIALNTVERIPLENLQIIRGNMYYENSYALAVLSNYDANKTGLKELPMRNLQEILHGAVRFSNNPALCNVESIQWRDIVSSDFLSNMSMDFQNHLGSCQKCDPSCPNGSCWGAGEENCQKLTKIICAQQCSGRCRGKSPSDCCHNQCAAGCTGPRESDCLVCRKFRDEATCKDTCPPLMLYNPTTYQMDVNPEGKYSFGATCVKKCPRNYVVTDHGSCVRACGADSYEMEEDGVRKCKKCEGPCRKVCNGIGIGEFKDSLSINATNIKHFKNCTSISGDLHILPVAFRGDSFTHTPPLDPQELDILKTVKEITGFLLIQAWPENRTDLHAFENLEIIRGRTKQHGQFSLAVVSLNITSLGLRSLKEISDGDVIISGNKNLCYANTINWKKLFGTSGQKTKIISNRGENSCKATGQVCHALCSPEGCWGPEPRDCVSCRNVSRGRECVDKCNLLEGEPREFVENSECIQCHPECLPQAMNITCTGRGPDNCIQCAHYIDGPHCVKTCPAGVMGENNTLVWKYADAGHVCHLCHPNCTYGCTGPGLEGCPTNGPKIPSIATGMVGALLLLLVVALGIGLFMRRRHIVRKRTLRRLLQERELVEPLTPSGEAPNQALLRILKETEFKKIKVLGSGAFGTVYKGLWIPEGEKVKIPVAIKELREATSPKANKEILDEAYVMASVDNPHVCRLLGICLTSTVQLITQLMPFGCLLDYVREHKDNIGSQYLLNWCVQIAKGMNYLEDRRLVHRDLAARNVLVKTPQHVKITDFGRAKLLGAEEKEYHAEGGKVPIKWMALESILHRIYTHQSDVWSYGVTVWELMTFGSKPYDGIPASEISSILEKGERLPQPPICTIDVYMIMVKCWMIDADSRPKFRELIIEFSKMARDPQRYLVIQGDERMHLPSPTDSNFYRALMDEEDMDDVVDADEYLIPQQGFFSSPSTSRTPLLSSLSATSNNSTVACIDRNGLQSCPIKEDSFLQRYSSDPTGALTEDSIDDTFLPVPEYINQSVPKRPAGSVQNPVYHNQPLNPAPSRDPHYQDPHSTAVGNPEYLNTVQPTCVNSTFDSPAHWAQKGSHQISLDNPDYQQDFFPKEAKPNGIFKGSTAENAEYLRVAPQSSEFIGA
- RUN DESCRIPTION: HTRF-based EGFR biochemical assay (L858R)
- TEST CONDITIONS: 100 μM ATP, enzyme 0.1 nM; dihydrochloride
Counter-ions that a name gives are not always drawn.
PROPERTY NAME: pIC50
Just so you know, pIC50 here is -log10 of the concentration in molar units; reply with that number alone.

Ask: I am curious: what pIC50 value has been reported for CN1CCC(c2ccc(-c3cc(F)c4c(=O)n([C@@H](c5nc6ccccc6[nH]5)c5cc(F)ccc5O)ccc4c3)cc2)CC1 (single isomer, unassigned) [Compound 116, dihydrochloride] ?
Reply: 9.10
